Give measured z-score for each item. Keep answers brief.
- ASSAY: basal 3T3-L1 adipocyte mitochondrial potential changes, profiling panel, cell-based, JC-1 fluorescence, 3T3-L1 adipocytes, 24 h, 100 nL compound (AID 1168); further: test concentration not given here
- EXPERIMENTAL PARAMETERS: JC-1 mitochondrial fluorescence, higher = more signal, called active from +8 up or from −8 down
// print number alone

Item under review: `COc1ccc([Si](C)(C)[C@H]2[C@H](CCO)O[C@@]3(C(=O)N(Cc4ccccc4)c4ccc(N(C=O)c5ccccc5)cc43)[C@@H]2C)cc1` . Reported z-score? -0.00912

Another compound to look at: O=C1OCCC=C[C@H]2OC34C=CCN(c5ccc(Cl)cc5)C(=O)[C@H]3N(CCO)C(=O)[C@@H]4C12 (some centres undefined) 0.296

Note, next up: `C=C(COC)/C(=C/C[C@H](OC(=O)c1ccncc1)c1ccc(OCCO)cc1)c1cc(C(=O)OC)ccc1OC` -0.4

Now this one: `CC(=O)NCCCC[C@@H]1NC(=O)[C@H]2C[C@@H](C(=O)NCCCCCC[N+](C)(C)C)[C@@H](c3ccc(O)cc3)N2C1=O` 0.217
